- Tested on: BT474 (breast cancer cell line)
- TEST DETAILS: In vitro cytotoxicity by MTT assay, BT474
- Type: cell-based
- EXPERIMENTAL CONTEXT: Homo sapiens, BT-474, 3.7 μM, 72 h, read-out: % cytotoxicity (100 − % cell survival) of BT474 cell line
Reported cytotoxicity at 3.7 µM values are given for each entry in this list.
MEASURED PROPERTY: cytotoxicity at 3.7 µM (%)

COMPOUND: O=C(NS(=O)(=O)c1nnc(N=Cc2ccccc2)s1)c1ccccc1 [Compound 9a]
DATA VALUE: 40.2
//
COMPOUND: CC(=O)Nc1ccc(S(=O)(=O)Nc2nnc(S(=O)(=O)NC(=O)c3ccccc3O)s2)cc1 [Compound 6d]
DATA VALUE: 32.1
//
COMPOUND: O=C(NS(=O)(=O)c1nnc(N=Cc2ccccc2O)s1)c1ccccc1 [Compound 9f]
DATA VALUE: 35.8
//
COMPOUND: O=C(NS(=O)(=O)c1nnc(N=Cc2ccco2)s1)c1ccccc1 [Compound 9j]
DATA VALUE: 49.3
//
COMPOUND: Nc1ccc(C(=O)NS(=O)(=O)c2nnc(N)s2)cc1 [Compound 4c]
DATA VALUE: 38.8
//
COMPOUND: CC(=O)Nc1ccc(S(=O)(=O)Nc2nnc(S(=O)(=O)NC(=O)c3ccc(N)cc3)s2)cc1 [Compound 6c]
DATA VALUE: 37.1
//
COMPOUND: Nc1ccc(S(=O)(=O)Nc2nnc(S(=O)(=O)NC(=O)c3ccccc3)s2)cc1 [Compound 7a]
DATA VALUE: 40.7
//
COMPOUND: Nc1nnc(S(=O)(=O)NC(=O)c2ccc([N+](=O)[O-])cc2)s1 [Compound 4e]
DATA VALUE: 37
//
COMPOUND: Nc1ccc(S(=O)(=O)Nc2nnc(S(=O)(=O)NC(=O)c3ccc(Cl)cc3)s2)cc1 [Compound 7g]
DATA VALUE: 34.7
//
COMPOUND: O=C(NS(=O)(=O)c1nnc(N=Cc2ccc(Cl)cc2)s1)c1ccccc1 [Compound 9b]
DATA VALUE: 56.3
//
COMPOUND: Nc1ccc(C(=O)NS(=O)(=O)c2nnc(NS(=O)(=O)c3ccc(N)cc3)s2)cc1 [Compound 7c]
DATA VALUE: 24.2
//
COMPOUND: CC(=O)Nc1ccc(S(=O)(=O)Nc2nnc(S(=O)(=O)NC(=O)c3ccc(Cl)cc3)s2)cc1 [Compound 6g]
DATA VALUE: 39.5
//
COMPOUND: CC(=O)Nc1ccc(S(=O)(=O)Nc2nnc(S(=O)(=O)NC(=O)c3ccccc3)s2)cc1 [Compound 6a]
DATA VALUE: 30.9
//
COMPOUND: COc1ccccc1C=Nc1nnc(S(=O)(=O)NC(=O)c2ccccc2)s1 [Compound 9c]
DATA VALUE: 53.6
//
COMPOUND: Nc1ccc(S(=O)(=O)Nc2nnc(S(=O)(=O)NC(=O)c3ccc([N+](=O)[O-])cc3)s2)cc1 [Compound 7e]
DATA VALUE: 48.5
